System: HCT-15 colon
run.description: NCI-60 one-dose screen, 48 h (100 = growth as untreated, 0 = no growth, -100 = all killed)
stated.conditions: 10 µM unless noted
Compounds without any hit were thinned out: in the full panel of roughly 83,000, 20% have a hit.
Answer each item with its documented growth.
One number for each entry, in %.

CCOP(=O)(NC)OCC : 112

Batch request: growth per item, same order as input.
1. O=C(NC1=NCC[Se]1)c1ccccc1O
2. O=c1[nH]c(=O)[nH]c(=O)[nH]1
3. C[N+]12CCC34C5=CC(=O)C(=O)C=C5[N+]5(C)C(=O)CC6OCC=C(C1)C(CC32)C6C45 (stereo not drawn)

OUT:
1: 82; 2: 160; 3: 103

Look at each molecule and report its growth.
1. C[C@]12CC[C@H]3[C@@H](C[C@@H]4SC(Nc5ccccc5)=N[C@@]45C/C(=N/O)CC[C@]35C)[C@@H]1CCC2=O
2. CC[C@H](C)[C@H](NC(=O)[C@H]1CCCCN1C)C(=O)N(C)[C@H](CCc1nc(C(=O)N[C@@H](Cc2ccccc2)C[C@H](C)C(=O)O)cs1)C(C)C
3. O=P1(N(CCCl)CCCl)NCCCO1 (stereo not drawn)
4. O=S(=O)(c1ccc(O)cc1)c1ccccc1O

OUT:
1: 44.3; 2: 27.3; 3: 106; 4: 108

###

Test system: SK-MEL-2 melanoma
run.description: NCI-60 one-dose screen, 48 h (100 = growth as untreated, 0 = no growth, -100 = all killed)
stated.conditions: 10 µM unless noted
Procedure: Growth inhibition of the SK-MEL-2 human tumor cell line is measured as a screen for anti-cancer activity. Cells are grown in 96 well plates and exposed to the test compound for 48 hours. Compounds are tested at a single concentration, which is 10^-5 M for most compounds. The reported endpoint is percent growth (GI% or GIPRCNT), where numbers from 0 - 100% represent growth inhibition, and numbers from -100% - 0 represent cell death. For example, a value of 40 represents 60% growth inhibition. […]
This is part of a sample that, as a whole, favours compounds with a hit. Of some 83,000 tested, about 20% had one in any assay.
measured.parameter: growth (%)
Answers are plain numbers, in %.

CC(=O)C(N)Cc1ccccc1 (configuration not stated) : 107
COc1ccc(CN)cc1OC : 112
COc1cc2c(cc1OC)[C@@H]1C(=O)c3ccc4c(c3O[C@@H]1CO2)C[C@H](C(C)C)O4 : 91

Look at each molecule and report its growth.
1. COC[C@H]1OC(=O)c2coc3c2[C@@]1(C)C1=C(C3=O)[C@@H]2CCC(=O)[C@@]2(C)C[C@H]1OC(C)=O
2. COC(=O)CCP(CCC(=O)OC)c1ccccc1
3. C[N+]12CCC34C5=CC(=O)C(=O)C=C5[N+]5(C)C(=O)CC6OCC=C(C1)C(CC32)C6C45 (configuration not stated)
4. O=[N+]([O-])c1ccc2scc3c4ccccc4nc-3c2c1
5. CCOC(=O)c1cncn1C(C)c1ccccc1 (configuration not stated)

OUT:
1: 17.3; 2: 110; 3: 120; 4: -63.2; 5: 105

Hi team, please reply with growth for each item in this list.
1. O=C(NC1=NCC[Se]1)c1ccccc1O
2. O=C1NC(=O)C(=C/C=C/c2ccccc2)C(=O)N1

OUT:
1: 83; 2: 74.2

Return reported growth values for all items listed beneath this line.
1. CC(=O)Cc1ccc2c(c1)OCO2
2. C[C@]12CCc3nc(-c4ccc(O)c(O)c4)sc3C1=CC[C@@H]1[C@@H]2CC[C@]2(C)C(=O)CC[C@@H]12
3. CC1=C(C)C(=O)O[C@@H]([C@](C)(O)[C@]2(O)CC[C@@]3(O)[C@@H]4C[C@H]5O[C@]56CC=CC(=O)[C@]6(C)[C@H]4CC[C@]23C)C1
4. C/C(=N/OC(=O)N(C)C)c1ccc(Cl)c(Cl)c1

OUT:
1. 112
2. 104
3. -24.6
4. 111

Kindly give each listed record's growth.
1. CCOP(=O)(OCC)C(=O)N(CC)CC
2. NC(N)=NC(N)=Nc1ccc(Cl)cc1

OUT:
103
111
